Here the recorded IC50 is given for each entry.
TEST TARGET: Glutamate NMDA receptor; Grin1/Grin2b (Rattus norvegicus, UniProt P35439+Q00960)
Sequence (Q00960 whole entry, other chains not shown): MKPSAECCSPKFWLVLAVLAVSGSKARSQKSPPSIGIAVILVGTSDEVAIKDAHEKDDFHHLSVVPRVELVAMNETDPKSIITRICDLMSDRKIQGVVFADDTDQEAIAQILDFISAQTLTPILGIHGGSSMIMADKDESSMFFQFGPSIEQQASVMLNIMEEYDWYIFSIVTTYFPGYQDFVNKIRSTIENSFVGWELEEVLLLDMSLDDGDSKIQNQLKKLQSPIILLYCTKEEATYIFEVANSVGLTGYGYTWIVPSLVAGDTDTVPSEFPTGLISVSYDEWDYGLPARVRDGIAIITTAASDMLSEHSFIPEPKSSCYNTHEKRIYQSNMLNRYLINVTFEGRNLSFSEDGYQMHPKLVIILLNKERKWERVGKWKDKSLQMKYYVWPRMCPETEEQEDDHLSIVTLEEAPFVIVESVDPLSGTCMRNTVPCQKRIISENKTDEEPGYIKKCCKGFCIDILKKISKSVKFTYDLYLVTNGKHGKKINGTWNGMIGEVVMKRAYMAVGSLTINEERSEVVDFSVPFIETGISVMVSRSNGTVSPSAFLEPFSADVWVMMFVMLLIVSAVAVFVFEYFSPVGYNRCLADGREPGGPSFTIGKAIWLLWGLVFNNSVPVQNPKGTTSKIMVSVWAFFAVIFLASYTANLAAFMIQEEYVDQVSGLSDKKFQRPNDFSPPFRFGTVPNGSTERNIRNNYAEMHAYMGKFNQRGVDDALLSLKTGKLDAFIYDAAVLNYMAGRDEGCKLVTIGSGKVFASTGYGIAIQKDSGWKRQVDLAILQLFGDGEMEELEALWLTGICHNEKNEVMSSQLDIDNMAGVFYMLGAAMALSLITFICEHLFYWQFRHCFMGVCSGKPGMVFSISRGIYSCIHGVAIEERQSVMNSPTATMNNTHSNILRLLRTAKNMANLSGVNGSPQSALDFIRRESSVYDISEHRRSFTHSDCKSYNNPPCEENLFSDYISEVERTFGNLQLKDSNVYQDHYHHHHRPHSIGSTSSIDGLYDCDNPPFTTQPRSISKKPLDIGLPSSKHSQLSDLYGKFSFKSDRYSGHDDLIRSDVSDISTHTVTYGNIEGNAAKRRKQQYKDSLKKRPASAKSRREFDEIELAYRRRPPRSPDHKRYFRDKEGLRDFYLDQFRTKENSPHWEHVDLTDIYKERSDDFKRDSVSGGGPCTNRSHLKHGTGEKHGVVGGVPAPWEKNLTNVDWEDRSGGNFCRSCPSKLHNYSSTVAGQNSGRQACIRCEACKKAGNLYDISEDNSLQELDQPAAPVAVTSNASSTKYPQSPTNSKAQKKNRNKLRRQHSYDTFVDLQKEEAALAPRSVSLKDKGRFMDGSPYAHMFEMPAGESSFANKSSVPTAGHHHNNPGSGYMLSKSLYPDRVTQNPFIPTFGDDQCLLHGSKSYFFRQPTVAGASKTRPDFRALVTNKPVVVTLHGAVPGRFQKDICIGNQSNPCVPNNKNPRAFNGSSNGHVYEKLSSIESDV
PROTOCOL SUMMARY: Inhibition of rat recombinant NR1/NR2B receptor expressed in Xenopus oocytes assessed as inhibition of glutamate and glycine-induced evoked current by two electrode voltage clamp method
READOUT NAME: IC50 (µM)

[
  {
    "MOL SMILES": "CS(=O)(=O)Nc1ccc(OC[C@@H](O)CN(CCc2ccc(Cl)c(Cl)c2)Cc2ccccc2)cc1",
    "TEST TARGET": "Glutamate NMDA receptor; Grin1/Grin2b (Rattus norvegicus, UniProt P35439+Q00960)",
    "READOUT NAME": "IC50",
    "MEASUREMENT": 0.177
  },
  {
    "MOL SMILES": "O=C(Nc1ccc(OC[C@@H](O)CNCCc2ccc(Cl)c(Cl)c2)cc1)C(Cl)Cl",
    "TEST TARGET": "Glutamate NMDA receptor; Grin1/Grin2b (Rattus norvegicus, UniProt P35439+Q00960)",
    "READOUT NAME": "IC50",
    "MEASUREMENT": 12.8
  },
  {
    "MOL SMILES": "CS(=O)(=O)Nc1ccc(OC[C@@H](O)CN(CCc2ccc(Cl)c(Cl)c2)Cc2ccccn2)cc1",
    "TEST TARGET": "Glutamate NMDA receptor; Grin1/Grin2b (Rattus norvegicus, UniProt P35439+Q00960)",
    "READOUT NAME": "IC50",
    "MEASUREMENT": 2.76
  },
  {
    "MOL SMILES": "CCCCN(CCc1ccc(Cl)c(Cl)c1)C[C@@H](O)COc1ccc(NS(C)(=O)=O)cc1",
    "TEST TARGET": "Glutamate NMDA receptor; Grin1/Grin2b (Rattus norvegicus, UniProt P35439+Q00960)",
    "READOUT NAME": "IC50",
    "MEASUREMENT": 1.28
  },
  {
    "MOL SMILES": "CS(=O)(=O)Nc1ccccc1OC[C@@H](O)CNCCc1ccc(Cl)c(Cl)c1",
    "TEST TARGET": "Glutamate NMDA receptor; Grin1/Grin2b (Rattus norvegicus, UniProt P35439+Q00960)",
    "READOUT NAME": "IC50",
    "MEASUREMENT": 12
  },
  {
    "MOL SMILES": "CS(=O)(=O)Nc1ccc(OC[C@@H](O)CNCCc2ccc3c(c2)OCO3)cc1",
    "TEST TARGET": "Glutamate NMDA receptor; Grin1/Grin2b (Rattus norvegicus, UniProt P35439+Q00960)",
    "READOUT NAME": "IC50",
    "MEASUREMENT": 0.951
  },
  {
    "MOL SMILES": "CS(=O)(=O)Nc1ccc(OC[C@@H](O)CN(CCc2ccc(Cl)c(Cl)c2)CCc2ccccc2O)cc1",
    "TEST TARGET": "Glutamate NMDA receptor; Grin1/Grin2b (Rattus norvegicus, UniProt P35439+Q00960)",
    "READOUT NAME": "IC50",
    "MEASUREMENT": 0.755
  }
]

====

The following compounds have recorded IC50 on UniProt:Q12809.
Sequence (Q12809 whole entry): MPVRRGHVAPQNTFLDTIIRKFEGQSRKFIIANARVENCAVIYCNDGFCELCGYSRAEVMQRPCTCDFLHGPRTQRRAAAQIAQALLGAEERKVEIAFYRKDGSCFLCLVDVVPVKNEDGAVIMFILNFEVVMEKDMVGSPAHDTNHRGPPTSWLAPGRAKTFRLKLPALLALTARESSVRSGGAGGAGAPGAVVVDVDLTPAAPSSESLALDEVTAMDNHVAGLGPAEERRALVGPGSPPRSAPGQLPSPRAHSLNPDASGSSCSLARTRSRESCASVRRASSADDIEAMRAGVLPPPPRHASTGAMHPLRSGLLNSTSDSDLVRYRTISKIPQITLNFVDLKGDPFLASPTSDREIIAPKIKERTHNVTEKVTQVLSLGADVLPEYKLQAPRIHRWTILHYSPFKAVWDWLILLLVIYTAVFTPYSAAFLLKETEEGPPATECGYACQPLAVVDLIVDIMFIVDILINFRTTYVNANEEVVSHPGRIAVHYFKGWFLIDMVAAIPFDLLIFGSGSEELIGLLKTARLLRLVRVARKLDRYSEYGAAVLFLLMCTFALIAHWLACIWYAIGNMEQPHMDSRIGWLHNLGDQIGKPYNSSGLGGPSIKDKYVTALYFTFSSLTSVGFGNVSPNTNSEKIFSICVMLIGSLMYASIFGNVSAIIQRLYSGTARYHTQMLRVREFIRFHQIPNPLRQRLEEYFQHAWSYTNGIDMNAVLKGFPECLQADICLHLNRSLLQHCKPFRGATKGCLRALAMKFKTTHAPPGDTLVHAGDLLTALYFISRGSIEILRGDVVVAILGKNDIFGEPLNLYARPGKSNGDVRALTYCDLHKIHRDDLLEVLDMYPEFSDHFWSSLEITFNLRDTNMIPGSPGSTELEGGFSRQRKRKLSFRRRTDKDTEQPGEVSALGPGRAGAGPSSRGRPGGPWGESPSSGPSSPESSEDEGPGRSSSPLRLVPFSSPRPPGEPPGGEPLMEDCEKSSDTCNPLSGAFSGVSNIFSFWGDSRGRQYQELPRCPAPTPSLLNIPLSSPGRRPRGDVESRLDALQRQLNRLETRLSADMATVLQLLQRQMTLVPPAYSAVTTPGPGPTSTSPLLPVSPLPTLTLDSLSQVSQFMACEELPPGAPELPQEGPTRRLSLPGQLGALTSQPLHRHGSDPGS

[
  {
    "MOL SMILES": "CS(=O)(=O)Nc1ccc(OC[C@@H](O)CNCCc2ccc(Cl)c(F)c2)cc1",
    "IC50 (nM)": 1910
  },
  {
    "MOL SMILES": "CS(=O)(=O)Nc1ccc(OC[C@@H](O)CNCCc2ccc(F)c(F)c2)cc1",
    "IC50 (nM)": 1630
  },
  {
    "MOL SMILES": "CS(=O)(=O)Nc1ccc(OC[C@@H](O)CNCCc2ccc(Cl)c(Cl)c2)cc1",
    "IC50 (nM)": 730
  },
  {
    "MOL SMILES": "Cc1ccc(CCNC[C@H](O)COc2ccc(NS(C)(=O)=O)cc2)cc1C",
    "IC50 (nM)": 2400
  }
]

====

Tested on: Mus musculus
PROTOCOL SUMMARY: Plasma concentration in C57BL/6 mouse at 30 mg/kg, ip
Format: ADME, organism-based
Design: dose 30 mg/kg, route intraperitoneal
STATED CONDITIONS: in vivo

[
  {
    "MOL SMILES": "CS(=O)(=O)Nc1ccc(OC[C@@H](O)CNCCc2ccc(Cl)c(Cl)c2)cc1",
    "QUANTITY UNIT": "nM",
    "concentration": 1000
  }
]

====

TEST TARGET: Glutamate NMDA receptor; Grin1/Grin2b (Rattus norvegicus, UniProt P35439+Q00960)
PROTOCOL SUMMARY: Inhibition of rat recombinant NR1/NR2B receptor expressed in Xenopus oocytes assessed as inhibition of glutamate and glycine-induced evoked current by two electrode voltage clamp method
pIC50: −log10 of the molar value.
Criterion: pIC50 meeting or surpassing 6. Met: true. Not met: false.

[
  {
    "MOL SMILES": "CS(=O)(=O)Nc1ccc(OC[C@@H](O)CNCCc2ccc(O)cc2)cc1",
    "QUALITATIVE LABEL": "false"
  },
  {
    "MOL SMILES": "CS(=O)(=O)Nc1cccc(OC[C@@H](O)CNCCc2ccc(Cl)c(Cl)c2)c1",
    "QUALITATIVE LABEL": "true"
  },
  {
    "MOL SMILES": "CN(CCc1ccc(Cl)c(Cl)c1)C[C@H](O)COc1ccc(NS(C)(=O)=O)cc1",
    "QUALITATIVE LABEL": "true"
  },
  {
    "MOL SMILES": "Cc1ccc(CN(CCc2ccc(Cl)c(Cl)c2)C[C@H](O)COc2ccc(NS(C)(=O)=O)cc2)cc1",
    "QUALITATIVE LABEL": "false"
  },
  {
    "MOL SMILES": "CS(=O)(=O)Nc1ccc(OC[C@@H](O)CNCCc2ccccc2O)cc1",
    "QUALITATIVE LABEL": "false"
  }
]

====

TEST TARGET: Glutamate NMDA receptor; Grin1/Grin2b (Rattus norvegicus, UniProt P35439+Q00960)
PROTOCOL SUMMARY: Inhibition of rat recombinant NR1/NR2B receptor expressed in Xenopus oocytes assessed as inhibition of glutamate and glycine-induced evoked current by two electrode voltage clamp method
Type: cell-based, Oocyte
pIC50: −log10 of the molar value.
Hi, to clarify the labels: class 1 covers pIC50 from 6 upward, class 0 covers anything below 6.

[
  {
    "MOL SMILES": "C[C@H](NC[C@H](O)COc1ccc(NS(C)(=O)=O)cc1)c1cccc2ccccc12",
    "QUALITATIVE LABEL": "class 0"
  },
  {
    "MOL SMILES": "CS(=O)(=O)Nc1ccc(OC[C@H](O)CN(CCc2ccc(Cl)c(Cl)c2)Cc2cccc(O)c2)cc1",
    "QUALITATIVE LABEL": "class 1"
  },
  {
    "MOL SMILES": "CS(=O)(=O)Nc1ccc(OC[C@@H](O)CN(CCc2ccc(Cl)c(Cl)c2)Cc2ccccc2Cl)cc1",
    "QUALITATIVE LABEL": "class 1"
  },
  {
    "MOL SMILES": "CS(=O)(=O)Nc1ccc(OC[C@@H](O)CNCCc2ccc(Cl)c(Cl)c2)cc1",
    "QUALITATIVE LABEL": "class 1"
  },
  {
    "MOL SMILES": "CS(=O)(=O)Nc1ccc(OC[C@@H](O)CN(CCc2ccc(Cl)c(Cl)c2)Cc2c(F)cccc2F)cc1",
    "QUALITATIVE LABEL": "class 1"
  },
  {
    "MOL SMILES": "O=C(Nc1ccc(OC[C@@H](O)CNCCc2ccc(Cl)c(Cl)c2)cc1)C(Cl)(Cl)Cl",
    "QUALITATIVE LABEL": "class 0"
  },
  {
    "MOL SMILES": "COc1cccc(OC)c1CN(CCc1ccc(Cl)c(Cl)c1)C[C@H](O)COc1ccc(NS(C)(=O)=O)cc1",
    "QUALITATIVE LABEL": "class 0"
  },
  {
    "MOL SMILES": "CS(=O)(=O)Nc1ccc(OC[C@@H](O)CN(CCc2ccc(Cl)c(Cl)c2)Cc2cccc(F)c2)cc1",
    "QUALITATIVE LABEL": "class 1"
  },
  {
    "MOL SMILES": "CS(=O)(=O)Nc1ccc(OC[C@@H](O)CN(CCc2ccc(Cl)c(Cl)c2)Cc2cccnc2)cc1",
    "QUALITATIVE LABEL": "class 1"
  },
  {
    "MOL SMILES": "CS(=O)(=O)Nc1ccc(OC[C@@H](O)CNCCc2ccc(F)c(Cl)c2)cc1",
    "QUALITATIVE LABEL": "class 1"
  },
  {
    "MOL SMILES": "CCN(CCc1ccc(Cl)c(Cl)c1)C[C@H](O)COc1ccc(NS(C)(=O)=O)cc1",
    "QUALITATIVE LABEL": "class 1"
  },
  {
    "MOL SMILES": "CS(=O)(=O)Nc1ccc(OC[C@@H](O)CNCCc2ccc(Cl)cc2Cl)cc1",
    "QUALITATIVE LABEL": "class 0"
  },
  {
    "MOL SMILES": "CS(=O)(=O)Nc1ccc(OC[C@@H](O)CNCCc2ccc(Cl)cc2)cc1",
    "QUALITATIVE LABEL": "class 1"
  },
  {
    "MOL SMILES": "CC(C)N(CCc1ccc(Cl)c(Cl)c1)C[C@H](O)COc1ccc(NS(C)(=O)=O)cc1",
    "QUALITATIVE LABEL": "class 1"
  }
]
